Kindly state MIC for each of the entries shown.
- Test system: Aspergillus fumigatus
- Experiment: Antifungal activity against Aspergillus fumigatus by broth dilution method
- Type: functional
Starred links: 1 amine or outer side, 2 acyl side, 3 side chain; linkers in the order of their positions; H or OH if unused. Non-standard residues stand in square brackets, D forms with d. Residues, ends and D or L forms follow the SMILES beside them. X2 = CN([C@@H](Cc1cccc(-c2cccc(-c3ccccc3)c2)c1)C(=O)[*:2])[*:1]; X15 = CNC(=O)c1ccc(-c2cccc(C[C@@H](C(=O)[*:2])N(C)[*:1])c2)cc1; X6 = CN([C@@H](Cc1cccc(-c2ccccc2Cl)c1)C(=O)[*:2])[*:1]; X14 = CN([C@@H](Cc1cccc(C2=CCCCC2)c1)C(=O)[*:2])[*:1]; Hmp(2R,3S) = CC[C@H](C)[C@@H](O)C(=O)O; NMeVal(β-OH) = CN[C@H](C(=O)O)C(C)(C)O; NMeV = CN[C@H](C(=O)O)C(C)C

Looking for the measured MIC of CC[C@H](C)[C@@H]1NC(=O)[C@@H]2CCCN2C(=O)[C@H](Cc2cccc(C3=CCCCC3)c2)N(C)C(=O)[C@H](Cc2ccccc2)NC(=O)[C@H](C(C)C)N(C)C(=O)[C@@H]([C@@H](C)CC)OC(=O)[C@H](C(C)(C)O)N(C)C(=O)[C@H](CC(C)C)NC(=O)[C@H](C(C)C)N(C)C1=O (cyclo(F[X14]PI[NMeV]L[NMeVal(β-OH)][Hmp(2R,3S)][NMeV])) , can you help?
> 5 µg/mL

Looking for the measured MIC of CC[C@H](C)[C@@H]1NC(=O)[C@@H]2CCCN2C(=O)[C@H](Cc2cccc(-c3ccccc3Cl)c2)N(C)C(=O)[C@H](Cc2ccccc2)NC(=O)[C@H](C(C)C)N(C)C(=O)[C@@H]([C@@H](C)CC)OC(=O)[C@H](C(C)(C)O)N(C)C(=O)[C@H](CC(C)C)NC(=O)[C@H](C(C)C)N(C)C1=O (cyclo(F[X6]PI[NMeV]L[NMeVal(β-OH)][Hmp(2R,3S)][NMeV])) , can you help?
< 1.25 µg/mL

Looking for the measured MIC of CC[C@H](C)[C@@H]1NC(=O)[C@@H]2CCCN2C(=O)[C@H](Cc2cccc(-c3ccc(C(=O)NC)cc3)c2)N(C)C(=O)[C@H](Cc2ccccc2)NC(=O)[C@H](C(C)C)N(C)C(=O)[C@@H]([C@@H](C)CC)OC(=O)[C@H](C(C)(C)O)N(C)C(=O)[C@H](CC(C)C)NC(=O)[C@H](C(C)C)N(C)C1=O (cyclo(F[X15]PI[NMeV]L[NMeVal(β-OH)][Hmp(2R,3S)][NMeV])) , can you help?
> 5 µg/mL

Looking for the measured MIC of CC[C@H](C)[C@@H]1NC(=O)[C@@H]2CCCN2C(=O)[C@H](Cc2cccc(-c3cccc(-c4ccccc4)c3)c2)N(C)C(=O)[C@H](Cc2ccccc2)NC(=O)[C@H](C(C)C)N(C)C(=O)[C@@H]([C@@H](C)CC)OC(=O)[C@H](C(C)(C)O)N(C)C(=O)[C@H](CC(C)C)NC(=O)[C@H](C(C)C)N(C)C1=O (cyclo(F[X2]PI[NMeV]L[NMeVal(β-OH)][Hmp(2R,3S)][NMeV])) , can you help?
> 5 µg/mL
